Values from the supplement of paper PMC10883282

Test system: KHOS-240S
ASSAY_METHOD_TEXT: relative viability vs DMSO control (72 h) (fraction); higher = more viable cells
CONDITION_INFO: 0.04115 µM
Please provide measured relative viability for the entries that follow.
Give only the figure.

Prompt line: // returns reported relative viability for input NC(=O)c1cnc2[nH]ccc2c1N[C@@H]1[C@@H]2CC3C[C@H]1C[C@@](O)(C3)C2 [Peficitinib]
Response line: 1.07

Prompt line: Reported relative viability for C1=N/C2=N/c3ccc(OCCN4CCCC4)c(c3)COC/C=C/COCc3cccc(c3)C(=C1)N2 [Pacritinib] : what is it?
Response line: 1.06

Prompt line: If you can, please state the reported relative viability value of C[C@@H](Oc1cc(-c2cnn(C3CCNCC3)c2)cnc1N)c1c(Cl)ccc(F)c1Cl [Crizotinib] .
Response line: 1.05

Prompt line: // lookup relative viability for C=CC(=O)Nc1cccc(Nc2nc(Nc3ccc(N4CCN(C(C)=O)CC4)cc3OC)ncc2C(F)(F)F)c1 [Rociletinib]
Response line: 1.03

Prompt line: What does the record list as relative viability for COc1cc2c(Oc3ccc4[nH]c(C)cc4c3F)ccnc2cc1OCC1(N)CC1 [Anlotinib] ?
Response line: 1.04

Prompt line: Recorded relative viability of COc1cc(Nc2c(C#N)cnc3cc(OCCCN4CCN(C)CC4)c(OC)cc23)c(Cl)cc1Cl [Bosutinib] , please.
Response line: 1.06
